target: full length active recombinant SYK enzyme (Homo sapiens, UniProt P43405); construct: full length active recombinant SYK enzyme (Millipore, Calif.); assay: Inhibition of Syk tyrosine phosphorylation activity (LANCE TR-FRET kinase assay)
pIC50: −log10 of the molar value.
For each record, write down the corresponding pIC50.

Report pIC50 for `NC(=O)c1cc(F)c(N[C@@H]2CCCC[C@@H]2N)nc1Nc1cccc(F)c1` please. 8.00 to 9.00

Report pIC50 for `Cc1cc(Nc2cc(N[C@H](CC(C)C)C(N)=O)ccc2C(N)=O)no1` please. 6.00 to 7.00

Report pIC50 for `Cc1cc(Nc2cc(N[C@H](CC3CCCCC3)C(N)=O)ccc2C(N)=O)sn1` please. 7.00 to 8.00

Report pIC50 for `N#Cc1cc(C(N)=O)c(Nc2ccc(-n3cccn3)cc2)nc1N[C@@H]1CCCC[C@@H]1N` please. 7.00 to 8.00

Report pIC50 for `Cc1ccccc1Nc1nc(N[C@@H]2CCCC[C@@H]2N)c(F)cc1C(N)=O` please. 7.00 to 8.00

Report pIC50 for `NC(=O)c1cc(F)c(N[C@@H]2CCCC[C@@H]2N)nc1Nc1ccc2c(c1)OCCO2` please. 8.00 to 9.00

Report pIC50 for `CC(C)n1ccc2c(Nc3nc(N[C@@H]4CCCC(F)(F)[C@@H]4N)c(F)cc3C(N)=O)cccc21` please. 7.00 to 8.00

Report pIC50 for NC(=O)c1ccc(N[C@@H]2CCCC[C@@H]2N)nc1Nc1ccc(-n2cccn2)cc1 (relative stereo) please. 7.00 to 8.00

Report pIC50 for `CCC[C@@H](Nc1nc(Nc2cnc3ccccc3c2)c(C(N)=O)cc1F)C(N)=O` please. 8.00 to 9.00
